List of Hematocrit values.
- Protocol summary: Hematology assays after oral gavage in CD-1 mice (Example 7)
- Type: in vivo
- Measurement parameters: 500 mg/kg oral gavage once daily for 4 weeks
Numeric answer only, unit % assumed.

Below: 5 substances and their reported Hematocrit.
[
  {
    "Substance": "798781 (CGTAAGATTCACAGCA; 3-10-3 cEt gapmer, further chemistry not given here) [compound 798781]",
    "Hematocrit / %": 52.0
  },
  {
    "Substance": "830037 (antisense CTATTGGCTGATCTGG; 3-10-3 cEt gapmer, further chemistry not given here) [compound 830037]",
    "Hematocrit / %": 53.4
  },
  {
    "Substance": "830025 (antisense TTTGTAAATCGAAAGC; 3-10-3 cEt gapmer, further chemistry not given here) [compound 830025]",
    "Hematocrit / %": 52.4
  },
  {
    "Substance": "830121 (AGAATCAAGCCCTGGC; 3-10-3 cEt gapmer, further chemistry not given here) [compound 830121]",
    "Hematocrit / %": 51.8
  },
  {
    "Substance": "829994 (GGAGGCAGGGCCGCGA; 3-10-3 cEt gapmer, further chemistry not given here) [compound 829994]",
    "Hematocrit / %": 51.5
  }
]

Now look at this entry.
Data request: Give the reported value of Hematocrit for this record: 790615 (CCAATGAGAATGCTTC; 3-10-3 cEt gapmer, further chemistry not given here) [compound 790615]
Data returned: 52.2

Where do the numbers come from? From patent US10517889B2.
